From: patent US12213970B2

target: MAO-A (Homo sapiens, UniProt P21397); construct: purchased Sigma-Aldrich M7316; experiment: MAO-A biochemical assay (MAO-Glo); settings: IC50; read-out: MAO-A
Sequence (P21397 whole entry): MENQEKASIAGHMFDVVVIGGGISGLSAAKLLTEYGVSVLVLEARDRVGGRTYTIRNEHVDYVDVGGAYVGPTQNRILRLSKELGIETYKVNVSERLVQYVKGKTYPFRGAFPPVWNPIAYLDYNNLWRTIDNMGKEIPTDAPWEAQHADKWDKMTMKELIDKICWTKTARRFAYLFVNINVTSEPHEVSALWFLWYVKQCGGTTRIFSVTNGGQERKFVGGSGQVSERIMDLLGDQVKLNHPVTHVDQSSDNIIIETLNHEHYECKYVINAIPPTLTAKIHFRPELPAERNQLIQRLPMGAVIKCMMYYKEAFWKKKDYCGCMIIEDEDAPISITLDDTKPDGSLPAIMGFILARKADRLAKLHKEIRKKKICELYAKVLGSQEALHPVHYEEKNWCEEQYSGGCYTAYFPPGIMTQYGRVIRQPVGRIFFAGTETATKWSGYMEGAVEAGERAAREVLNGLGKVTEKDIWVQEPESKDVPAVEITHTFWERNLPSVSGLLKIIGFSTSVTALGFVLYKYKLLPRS
Where a name gives a salt, the structure may show the parent alone.
Reported IC50 values follow for various compounds

Reference set, count: 10
INSERT INTO assay_data (compound, target_under_test, attribute_measured, test_result) VALUES
  ('CNC(=O)[C@@H]1[C@@H]2CN(S(=O)(=O)c3ccc(OC/C(=C\F)CN)nc3)C[C@@H]21 [Example 5]', 'MAO-A (Homo sapiens, UniProt P21397)', 'IC50', '> 50 µM'),
  ('NC/C(=C/F)COc1ccc(S(=O)(=O)N2CCC(O)(C(F)(F)F)CC2)cn1 [Example 42]', 'MAO-A (Homo sapiens, UniProt P21397)', 'IC50', '48.2 µM'),
  ('CC1(C(=O)NC2CC2)CCN(S(=O)(=O)c2ccc(OC/C(=C\F)CN)nc2)CC1 [Example 56]', 'MAO-A (Homo sapiens, UniProt P21397)', 'IC50', '> 50 µM'),
  ('NC/C(=C/F)COc1ccc(S(=O)(=O)N2CCC(CC(=O)NCCO)CC2)cn1 [Example 52]', 'MAO-A (Homo sapiens, UniProt P21397)', 'IC50', '25.9 µM'),
  ('CC(=O)N[C@@H]1CCCN(S(=O)(=O)c2ccc(OC/C(=C\F)CN)nc2)C1 [Example 24]', 'MAO-A (Homo sapiens, UniProt P21397)', 'IC50', '> 50 µM'),
  ('CC1(O)CCN(S(=O)(=O)c2ccc(OC/C(=C\F)CN)nc2)CC1 [Example 41]', 'MAO-A (Homo sapiens, UniProt P21397)', 'IC50', '> 50 µM'),
  ('NC/C(=C/F)COc1ccc(S(=O)(=O)N2CCC(C(=O)N3CCOCC3)CC2)cn1 [Example 3]', 'MAO-A (Homo sapiens, UniProt P21397)', 'IC50', '> 50 µM'),
  ('NC/C(=C/F)COc1ccc(S(=O)(=O)N2CC[C@H](C(=O)N3CCOCC3)C2)cn1 [Example 21]', 'MAO-A (Homo sapiens, UniProt P21397)', 'IC50', '> 50 µM'),
  ('CC1(C(=O)NC2CCOCC2)CCN(S(=O)(=O)c2ccc(OC/C(=C\F)CN)nc2)CC1 [Example 48, trifluoroacetate]', 'MAO-A (Homo sapiens, UniProt P21397)', 'IC50', '> 50 µM'),
  ('COCCNC(=O)CC1CCN(S(=O)(=O)c2ccc(OC/C(=C\F)CN)nc2)CC1 [Example 54]', 'MAO-A (Homo sapiens, UniProt P21397)', 'IC50', '26.9 µM');

INPUT: Please give the measured IC50 for this compound: COC(=O)[C@H]1[C@@H]2CN(S(=O)(=O)c3ccc(OC/C(=C\F)CN)nc3)C[C@@H]21 [Example 35]
OUTPUT: > 50 µM

INPUT: And for NC/C(=C/F)COc1ccc(S(=O)(=O)N2C[C@H]3C[C@@]3(C(=O)N3CCOCC3)C2)cn1 [Example 22] ?
OUTPUT: > 50 µM

INPUT: And for CC(=O)N[C@H]1CCCN(S(=O)(=O)c2ccc(OC/C(=C\F)CN)nc2)C1 [Example 6] ?
OUTPUT: > 50 µM

INPUT: And for CCNC(=O)CC1CCN(S(=O)(=O)c2ccc(OC/C(=C\F)CN)nc2)CC1 [Example 30] ?
OUTPUT: 21.4 µM

INPUT: And for NC/C(=C/F)COc1ccc(S(=O)(=O)N2CCC[C@@H]2C(N)=O)cn1 [Example 18] ?
OUTPUT: > 50 µM
